# Measured Target: Ba/F3_KRAS^G12D cells (Homo sapiens, UniProt P01116, G12D, cells depend on it)
# Sequence (P01116 whole entry G12D): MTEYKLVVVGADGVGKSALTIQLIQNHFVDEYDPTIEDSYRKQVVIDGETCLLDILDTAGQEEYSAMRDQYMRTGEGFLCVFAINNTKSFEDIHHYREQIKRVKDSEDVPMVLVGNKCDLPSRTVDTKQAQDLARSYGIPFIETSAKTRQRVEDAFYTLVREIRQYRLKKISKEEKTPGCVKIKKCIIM
# Assay Method Text: Ba/F3 KRAS^G12D cell proliferation assay (cell-titer Glo)
# Type: cell-based
# Test Conditions: cell growth inhibition, treated with the compounds for 3 days, read-out: BaF3_KRAS^G12D IC50
Measured Property: GI50

• C#Cc1c(F)ccc2cc(N)cc(-c3nc(OC(C)C)c4c(N5CC6CCC(C5)N6)nc(OC[C@@H]5C[C@@H](F)CN5C)nc4c3F)c12 = < 0.5 µM
• C#Cc1c(F)ccc2cc(O)cc(-c3nc(OC(C)C)c4c(N5CC6CCC(C5)N6)nc(OCCOC)nc4c3F)c12 = < 0.5 µM
• C#Cc1c(F)ccc2cc(O)cc(-c3nc(OC(C)C)c4c(N5CCNC(CF)C5)nc(OC[C@@]56CCCN5C[C@H](F)C6)nc4c3F)c12 (stereo partly shown) = < 0.5 µM
• C#Cc1c(F)ccc2cc(O)cc(-c3nc(OC(C)C)c4c(N5CC6CCC(C5)N6)nc(OC[C@]56CCCN5[C@H](CO)CC6)nc4c3F)c12 = < 0.5 µM
• CCc1c(F)ccc2cc(O)cc(-c3nc(OC)c4c(N5CC6CCC(C5)N6)nc(OC[C@]56CCCN5[C@@H](COC(=O)N(C)C)CC6)nc4c3F)c12 = < 0.5 µM
• Oc1cc(-c2ncc3c(N4CC5CCC(C4)N5)nc(OC[C@@]45CCCN4C[C@H](F)C5)nc3c2F)c2c(Cl)cccc2c1 [Compound 112] = < 0.5 µM
• CCOc1nc(-c2cccc3ccc(F)c(CC)c23)c(F)c2nc(OC[C@]34CCCN3[C@@H](COC(=O)N(C)C)CC4)nc(N3CC4CCC(C3)N4)c12 = < 0.5 µM
• Cc1nc(N)cc(-c2nc(OC(C)C)c3c(N4CC5CCC(C4)N5)nc(OC[C@@]45CCCN4C[C@H](F)C5)nc3c2F)c1C(F)(F)F = < 0.5 µM
• C#Cc1c(F)ccc2cc(O)cc(-c3nc(C)c4c(N5CC6CCC(C5)N6)nc(OC[C@@]56CCCN5C[C@H](F)C6)nc4c3F)c12 = < 0.5 µM
• C[C@H]1CNCCN1c1nc(OCCN(C)C)cc2nc(-c3ccccc3F)c(F)cc12 = 0.5 to 5 µM
• Oc1cc(-c2ncc3c(C4CCNCC4)nc(OCC45CCCN4CCC5)nc3c2F)c2c(Cl)cccc2c1 = > 5 µM
• CN(C)CCOc1nc(N2CCNCC2)c2cc(F)c(-c3ccccc3F)nc2c1-c1cccnc1C1CC1 = 0.5 to 5 µM
• CCc1c(F)ccc2cc(O)cc(-c3nc(Cl)c4c(N5CC6CCC(C5)N6)nc(OC[C@@]56CCCN5C[C@H](F)C6)nc4c3F)c12 = < 0.5 µM
• CCc1c(F)ccc2cccc(-c3nc(OC(C)C)c4c(N5CC6CCC(C5)N6)nc(OC[C@]56CCCN5[C@@H](COC(=O)N(C)C)CC6)nc4c3F)c12 = < 0.5 µM
• Oc1cc(-c2ncc3c(N4CC5CCC(C4)N5)nc(OC[C@@]45CCCN4C[C@H](F)C5)nc3c2F)c2c(Cl)cccc2c1 [Compound 36] = < 0.5 µM
• C#Cc1c(F)ccc2cc(O)cc(-c3nc(OCC(F)(F)F)c4c(N5CC6CCC(C5)N6)ncnc4c3F)c12 = 0.5 to 5 µM
• CCc1cccc2cc(O)cc(-c3nc(C)c4c(N5CC6CCC(C5)N6)nc(OC[C@@]56CCCN5C[C@H](F)C6)nc4c3C)c12 = < 0.5 µM
• O=c1cc2c(N3CC4CCC(C3)N4)nc(OCC34CCCN3CCC4)nc2cn1-c1cc(O)cc2ccccc12 = > 5 µM
• C#Cc1c(F)ccc2cccc(-c3nc(OCC)c4c(N5CC6CCC(C5)N6)nc(OC[C@@]56CCCN5C[C@H](F)C6)nc4c3F)c12 = < 0.5 µM
• C#Cc1c(F)ccc2cc(O)cc(-c3nc(C4CC4)c4c(N5CC6CCC(C5)N6)ncnc4c3F)c12 = < 0.5 µM
• CN1CCC[C@H]1COc1nc(N2CC3CCC(C2)N3)c2cc(F)c(-c3cccc4cccc(Cl)c34)nc2n1 = 0.5 to 5 µM
• CCc1c(F)ccc2cccc(-c3nc(OC)c4c(N5CC6CCC(C5)N6)nc(OC[C@]56CCCN5[C@@H](COC(=O)N(C)C)CC6)nc4c3F)c12 = < 0.5 µM
• C#Cc1c(F)ccc2cc(O)cc(-c3nc(OCC)c4c(N5CC6CCC(C5)N6)nc(OC[C@]56CCCN5[C@@H](COC(=O)N(C)C)CC6)nc4c3F)c12 = < 0.5 µM
• Oc1cc(-c2nc(OCC34CCCN3CCC4)c3ccc(N4CCNCC4)nc3c2F)c2c(Cl)cccc2c1 = > 5 µM
• CCc1cccc2cc(O)cc(-c3nc(C)c4c(N5CC6CCC(C5)N6)nc(OC[C@@]56CCCN5C[C@H](F)C6)nc4c3C3CC3)c12 = 0.5 to 5 µM

* * *

# Measured Target: Ba/F3_KRAS^G12D cells (Homo sapiens, UniProt P01116, G12D, cells depend on it)
# Assay Method Text: Ba/F3 KRAS^G12D cell proliferation assay (cell-titer Glo)
# Assay type: cell-based
# Test Conditions: cell growth inhibition, treated with the compounds for 3 days, read-out: BaF3_KRAS^G12D IC50
List of GI50 values.
Measured Property: GI50

* Oc1cc(-c2ncc3c(N4CC5CCC(C4)N5)nc(OC[C@@]45CCCN4C[C@H](F)C5)c(Cl)c3n2)c2ccccc2c1 | 500 to 5000 nM
* C#Cc1c(F)ccc2cc(O)cc(-c3c(F)c4nc(OC[C@@]56CCCN5C[C@H](F)C6)nc(N5CC6CCC(C5)N6)c4c4ncnn34)c12 (single isomer, unassigned) [Compound 155] | < 500 nM
* Cc1nc(-c2cccc3cccc(CCC#N)c23)c(F)c2nc(OC[C@@]34CCCN3C[C@H](F)C4)nc(N3CC4CCC(C3)N4)c12 | 500 to 5000 nM
* C#Cc1c(F)ccc2cc(O)cc(-c3nc(OCC)c4c(N5C[C@H]6CC[C@@H](C5)[C@@H]6O)nc(OC[C@@]56CCCN5C[C@H](F)C6)nc4c3F)c12 | < 500 nM
* C#Cc1c(F)ccc2cc(N)cc(-c3nc(O)c4c(N5CC6CCC(C5)N6)nc(OC[C@@]56CCCN5C[C@H](F)C6)nc4c3F)c12 | 500 to 5000 nM
* CCOc1c(F)ccc2cc(O)cc(-c3nc(OC)c4c(N5CC6CCC(C5)N6)nc(OC[C@@]56CCCN5C[C@H](F)C6)nc4c3F)c12 | < 500 nM

* * *

The following compounds are shown together with reported GI50 values.
# Measured Target: Ba/F3_KRAS^G12D cells (Homo sapiens, UniProt P01116, G12D, cells depend on it)
# Assay Method Text: Ba/F3 KRAS^G12D cell proliferation assay (cell-titer Glo)
# Type: cell-based
# Test Conditions: cell growth inhibition, treated with the compounds for 3 days, read-out: BaF3_KRAS^G12D IC50
Measured Property: GI50

• Oc1cc(-c2ncc3c(N4CC5CCC(C4)N5)nc(OCC45CCCN4CCC5)nc3c2F)c2c(Cl)cccc2c1 = < 0.5 µM
• CCc1c(F)ccc2c(F)c(O)cc(-c3nc(C)c4c(N5CC6CCC(C5)N6)nc(OC[C@@]56CCCN5C[C@H](F)C6)nc4c3F)c12 = > 5 µM
• Clc1cccc2cccc(-c3nc(OCC45CCCN4CCC5)c4ccc(N5CCNCC5)nc4c3Br)c12 = 0.5 to 5 µM
• Fc1c(-c2cccc3cccc(Cl)c23)ncc2c(OCC34CCCN3CCC4)cc(N3CCNCC3)nc12 = 0.5 to 5 µM
• C#Cc1c(F)ccc2cc(O)cc(-c3nc(OC(C)C)c4c(N5CC6CCC(C5)N6)nc(OCCN(C)C)nc4c3F)c12 = < 0.5 µM
• C#Cc1c(F)ccc2cc(N)cc(-c3nc(OC)c4c(N5CC6CCC(C5)N6)nc(OC[C@@H]5C[C@H](F)CN5C)nc4c3F)c12 = < 0.5 µM
• CN1CCC[C@H]1Cn1c(=O)nc(N2CC3CCC(C2)N3)c2cc(F)c(-c3cc(O)cc4cccc(Cl)c34)nc21 = > 5 µM

* * *

# Measured Target: recombinant human KRAS^G12D protein (Homo sapiens, UniProt P01116, G12D)
# Sequence (P01116 1-188 isoform P01116-2 G12D): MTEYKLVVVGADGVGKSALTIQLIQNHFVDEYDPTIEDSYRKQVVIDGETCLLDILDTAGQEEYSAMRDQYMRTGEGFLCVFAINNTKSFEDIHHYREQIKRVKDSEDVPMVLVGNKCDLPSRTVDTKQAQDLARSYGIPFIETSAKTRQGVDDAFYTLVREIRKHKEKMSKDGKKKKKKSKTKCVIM
# Assay Method Text: Temperature-dependent Fluorescence (TdF) KRAS^G12D protein binding assay
# Test Conditions: 6 μM KRAS^G12D Protein, 10 μM compound, Sypro Orange; Kd calculated from fluorescent shift
Measured Property: Kd

* Oc1cc(-c2ncc3c(N4CC5CCC(C4)N5)cc(OC[C@@]45CCCN4C[C@H](F)C5)nc3c2F)c2ccccc2c1 | 0.5 to 5 µM
* N#Cc1cccc2cc(O)cc(-c3ncc4c(N5CC6CCC(C5)N6)nc(OCC56CCCN5CCC6)nc4c3F)c12 | ≤ 0.5 µM
* Fc1cc2c(N3C4CCC3CNC4)nc(OCC34CCCN3CCC4)nc2nc1-c1cccc2cccc(Cl)c12 | > 5 µM
* CN1CCC[C@@H]1COc1nc(-c2cccc3cccc(Cl)c23)c(F)c2nc(N3CCNCC3)ccc12 | > 5 µM
* C#Cc1c(F)ccc2cc(O)cc(-c3nc(C(F)F)c4c(N5CC6CCC(C5)N6)nc(OC[C@@]56CCCN5C[C@H](F)C6)nc4c3F)c12 | ≤ 0.5 µM
* CN(C)CCCOc1cc2nc(-c3cccc4ccccc34)ncc2c(N2CC3CCC(C2)N3)n1 | > 5 µM
* CN1CCC[C@H]1Cn1c(=O)nc(N2C[C@H]3CC[C@@H](C2)N3)c2cc(F)c(-c3cccc4cccc(Cl)c34)nc21 | > 5 µM
